measuredAttribute: melting point

1. C[C@@H](n1ccn(-c2ccc(-n3nccn3)cc2)c1=O)[C@](O)(Cn1cncn1)c1ccc(F)cc1F ... 182 to 185 °C
2. CCOC(=O)C1CSC(c2cc3cccc(NS(=O)(=O)c4cccs4)c3[nH]2)=N1 (stereo not given) ... 156 to 157 °C
3. O=c1[nH]c2c(Cl)cccc2c(=O)o1 ... 225 to 230 °C
4. CCCCCCCCCCCCCCCCCCNC(=O)OCC(CNS(=O)(=O)CCCI)Oc1ccon1 (stereo not given) ... 69 to 71.5 °C
5. COc1cccc(NC(=O)c2cc(-c3ccc(F)cc3F)ccc2O)c1 ... 187 to 188 °C

----------
The entries below are paired with their reported melting point.
measuredAttribute: melting point

1) O=C1NCN(c2ccccc2)C12CCCCC2 ... 193 to 195 °C
2) COc1ccc2c(n1)c(CCNC(=O)c1ccco1)c1n2CCCc2ccccc2-1 ... 70 to 71 °C
3) Cc1cc(C)cc(Oc2c(C=O)c(C)[nH]c(=O)c2I)c1 ... > 260 °C
4) O=c1cc(-c2cccs2)oc2cccc(OCCO)c12 ... 160 to 162 °C
5) CCCCCCC1=CC(O)(C(Br)Br)N(CCCC)C1=O (stereo not given) ... 85 to 86 °C
6) N#CC1CN1C(=O)CCC(N)=O (stereo not given) ... 68 to 72 °C
7) COc1ccc(Cl)c2nc(SCc3ccccc3)nn12 ... 90 to 91 °C
8) CSC(=C[N+](=O)[O-])NCCSCc1ccco1 ... 68 to 70 °C
9) CCOC(=O)CC[C@H](NC(=O)c1ccc(CN(C=O)CC2CNc3nc(NC(=O)C(C)(C)C)nc(O)c3C2)cc1)C(=O)OCC (stereo not given in full) ... 149 to 151 °C
10) O=C(NC(Cc1ccc(OCC2CC2)cc1)C(=O)O)c1cn2cc(-c3ccc(Cl)cc3)ccc2n1 (stereo not given) ... 276 °C

----------
measuredAttribute: melting point

1) CCOC(=O)C1[C@@H]2[C@@H](O)[C@@H]3O[C@H](c4ccccc4)OC[C@H]3O[C@H]12 (some centres undefined) ... 137 to 139 °C
2) CCC1(C)CC(C#N)(NC(=O)Nc2ccccc2)C(C)C(C)(CC)N1 (centres undefined) ... 167 to 170 °C
3) CCN(CC)C(=O)c1cccc2c(=O)c(C)c(-c3ccc(OC)cc3)oc12 ... 143 to 147 °C
4) COc1ccc(CC(=O)Cc2c(OC)cc(OC)c(CC=C(C)C)c2OCC(=O)O)cc1 ... 102 °C
5) CCn1cc(-c2cc(-c3nc(C(C)C)[nH]c3-c3cccc(C)n3)ccc2F)cn1 ... 76 to 78 °C
6) OCC1OC(n2c(Cl)nc3cc(Cl)c(Br)cc32)C(O)C1O (centres undefined) ... 158 to 159 °C
7) O=C(Nc1nnn[nH]1)c1cc(Cl)ccc1[N+](=O)[O-] ... 268 to 269 °C
8) CCOC(=O)C1=C(N(C)C)N=C(C)C(C(=O)OCC)C1c1ccccc1C#N (centres undefined) ... 129 °C
9) CCC1(Cc2ccc(O)cc2)NC(=O)NC1=O (centres undefined) ... 236 to 238 °C

----------
The entries below are paired with their reported melting point.
measuredAttribute: melting point

1. COc1ccc(Nc2cc(Cl)nc(SC)n2)cc1 ... 128 to 131 °C
2. O=[N+]([O-])c1cc(NCc2c(F)c(F)c(C(F)(F)F)c(F)c2F)ccc1O ... 126 to 128 °C
3. CCOC(=O)C(Cc1ccc(OCCn2c(=O)sc3cc(C(=O)C4CC4)ccc32)cc1)OCC(F)(F)F (stereo not given) ... 113 to 115 °C
4. COc1ccc(-c2coc3ccc(-c4nnc(SCc5cccc(C)c5)o4)cc23)cc1 ... 123 to 124 °C
5. CCCCc1nc(=O)c2cc(C=O)ccc2[nH]1 ... 242 to 244 °C
